Assay: Inhibition of Trypanosoma brucei MetRS in presence of ATP
resultType: pIC50
Numbers only, as −log10 of the molar value.

input: # get_value(readout='pIC50', item= `Oc1cc(NCCCNCc2cc(Cl)cc(Cl)c2)nc2ccccc12` )
output: 8.10

---

Test system: Leishmania braziliensis
Experiment: Antiprotozoal activity against Leishmania braziliensis amastigotes
Type: functional, organism-based
resultType: IC50 (µM)
Give bare numbers, in µM.

input: Checklist item: IC50 tested on Leishmania braziliensis, entry `CCCCCCCCCCNCCCCCCN` , value?
output: 10

---

Reported values: pKi for Trypanothione reductase (Trypanosoma brucei brucei, UniProt P39051), one per item.
Numbers only, as −log10 of the molar value.

Example entries and their recorded answers appear below.
INSERT INTO results (chemicalstring, numericreadout) VALUES
  ('c1ccc(CNCCCNCCCCNCCCNCc2ccccc2)cc1', 4.72),
  ('NCCCN(CCCCN(CCCN)CCCc1ccccc1)CCCc1ccccc1', 5.52);

Turning now to a further record.
input: Could you tell me which pKi is on file for `c1ccc(CCCNCCCN(CCCCN(CCCNCCCc2ccccc2)CCCc2ccccc2)CCCc2ccccc2)cc1` ?
output: 6.22

---

Target: Trypanothione reductase (Trypanosoma cruzi, UniProt P28593)
Sequence (P28593 whole entry): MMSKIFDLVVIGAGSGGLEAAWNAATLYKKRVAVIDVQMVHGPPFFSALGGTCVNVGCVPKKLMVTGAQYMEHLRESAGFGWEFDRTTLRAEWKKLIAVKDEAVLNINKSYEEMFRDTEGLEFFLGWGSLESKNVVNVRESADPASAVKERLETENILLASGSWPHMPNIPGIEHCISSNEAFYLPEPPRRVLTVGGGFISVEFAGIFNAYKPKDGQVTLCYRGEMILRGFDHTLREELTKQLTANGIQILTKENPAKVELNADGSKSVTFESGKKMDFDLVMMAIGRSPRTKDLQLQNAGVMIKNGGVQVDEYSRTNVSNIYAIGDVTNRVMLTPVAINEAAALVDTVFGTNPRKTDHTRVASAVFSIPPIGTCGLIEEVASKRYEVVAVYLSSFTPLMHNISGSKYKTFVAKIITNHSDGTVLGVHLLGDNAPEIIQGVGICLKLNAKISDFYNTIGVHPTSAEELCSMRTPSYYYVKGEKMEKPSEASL
Assay: Inhibition of Trypanosoma cruzi TryR assessed as inhibition constant
resultType: Ki (µM)
Give bare numbers, in µM.

Sample records with Ki:
INSERT INTO assay_data (compound, resulttype, unit, numericreadout) VALUES
  ('CCCNCCCNC(=O)CNC(=O)[C@H](CC(Br)C(Br)C[C@H](NC(=O)OCc1ccccc1)C(=O)NCC(=O)NCCCNCCC)NC(=O)OCc1ccccc1 (some centres not stated)', 'Ki', 'µM', 15.9),
  ('CN1CCN(CCCNc2cc(Cl)ccc2Sc2ccccc2)CC1', 'Ki', 'µM', 27),
  ('CCCNCCCNC(=O)CNC(=O)[C@H](CCCC[C@H](NC(=O)OCC1c2ccccc2-c2ccccc21)C(=O)NCC(=O)NCCCNCCC)NC(=O)OCC1c2ccccc2-c2ccccc21', 'Ki', 'µM', 2);

input: Given the compound `NCCCNCCCCNCCCNCCCc1ccccc1` , what is its reported Ki?
output: 37

---

Consider the following compounds; for each one, report its log10 IC50.
Target: Trypanothione reductase (Trypanosoma cruzi, UniProt P28593)
Test: Inhibition of Trypanosoma cruzi TryR
// do not treat as linear: log10 of IC50, unit nM

Some entries whose results are on file:
INSERT INTO results (chemicalstring, numericreadout) VALUES
  ('CN1CCN(CCC(=O)Nc2cc(Cl)ccc2Sc2cccc(NC(=O)CCCC(=O)Nc3cccc(Sc4ccc(Cl)cc4NC(=O)CCN4CCN(C)CC4)c3)c2)CC1', 2.97),
  ('NCCCN1CCN(CCCNC2=C(c3c[nH]c4ccccc34)C(=O)N(CCCN3CCN(CCCN)CC3)C2=O)CC1', 3.73),
  ('CN1CCN(CCCNC(=O)CCCCCC2=C(CCCCCC(=O)NCCCN3CCN(C)CC3)C(=O)c3c(N)cccc3C2=O)CC1', 2.90),
  ('CCCCN(CCCC)CCCNC(=O)CCCC1=C(CCCC(=O)NCCCN(CCCC)CCCC)C(=O)c2c(O)cccc2C1=O', 2.78);

Alright, here's another compound for you.
input: Query the reported log10 IC50 for Trypanothione reductase (Trypanosoma cruzi, UniProt P28593); item: `CCCCCCCCCCCCCC(=O)NCCCC(=O)N(CC(=O)Nc1cccc(Sc2ccc(Br)cc2NC(=O)CCN2CCN(C)CC2)c1)C(=O)Nc1ccccc1Sc1ccc(Br)cc1NC(=O)CCN1CCN(C)CC1`
output: 2.30

---

Assay: Inhibition of Leishmania infantum His tagged TryS in presence of ATP by LDH/PK assay
resultType: pIC50
One number for each entry, as −log10 of the molar value.

input: Give its pIC50 value. Item: `CNCCNC(=O)CN1C(=O)Cc2c([nH]c3ccc(Br)cc23)-c2ccc(Cl)cc21`
output: 6.82

---

Provide the reported pIC50 of each item.
Tested on: Trypanosoma brucei brucei
Assay: Antiprotozoal activity against Trypanosoma brucei brucei
Type: functional, organism-based
One number for each entry, as −log10 of the molar value.

INSERT INTO measurements (chemicalstring, numericreadout) VALUES
  ('COc1ccc2c(C(=O)C(=O)NCCCNCCCCCCCCCCCCNCCCNC(=O)C(=O)c3c[nH]c4cc(OC)ccc34)c[nH]c2c1', 6.74);

input: I am curious: what pIC50 value has been reported for `CC[C@H](C)CNCCCNCCCCCCCNCCCNC[C@@H](C)CC` ?
output: 7.40

---

System: Trypanosoma cruzi
Assay: Antiprotozoal activity against Trypanosoma cruzi CL-B5 strain epimastigotes
Assay type: functional, organism-based
resultType: pIC50
One number for each entry, as −log10 of the molar value.

input: What does the record list as pIC50 for CCCCCCCCCCCCCCC(CN)NC(=O)OC(C)(C)C (stereo unspecified) ?
output: 5.70

---

Test system: Trypanosoma brucei
Experiment: Trypanocidal activity against Trypanosoma brucei K 243 strain
Assay type: functional, organism-based
pIC50: −log10 of the molar value.
Please enter condition met where pIC50 is greater than or equal to 6, and condition not met where it is lower.

Below, 3 compounds whose answers are already recorded.
INSERT INTO assay_data (chemicalstring, qualitativelabel) VALUES
  ('c1ccc(CNCCCNCCCCCCCNCCCNCc2ccccc2)cc1', 'condition not met'),
  ('NCCCN(CCCCN(CCCN)CCCc1ccccc1)CCCc1ccccc1', 'condition met'),
  ('c1ccc(CCCNCCCN(CCCCN(CCCNCCCc2ccccc2)CCCc2ccccc2)CCCc2ccccc2)cc1', 'condition met');

Here's the next entry for you.
input: pIC50 >= 6 for `c1ccc(CCCN(CCCCN(CCCc2ccccc2)CCCN(CCCc2ccccc2)CCCc2ccccc2)CCCN(CCCc2ccccc2)CCCc2ccccc2)cc1` ?
output: condition not met

---

Experiment: Inhibition of TryR (unknown origin) assessed as inhibition constant by FRET assay
resultType: Ki (nM)
Answers are plain numbers, in nM.

input: Which Ki reading was recorded for the molecule `O=C(NCCCNCCCCNCCCNC(=O)c1cnc2cc(C(F)(F)F)ccc2c1O)c1cnc2cc(C(F)(F)F)ccc2c1O` ?
output: 750

---

System: Leishmania infantum
Test: Antiprotozoal activity against Leishmania infantum MHOM/MA671TMAP263 promastigote assessed as growth inhibition measured after 5 day by MTT assay
Assay type: functional, organism-based
Conditions: MHOM/MA671TMAP263, 120 h
resultType: IC50 (µM)
Give bare numbers, in µM.

input: # IC50 lookup, item `O=C1c2cccc3cccc(c23)C(=O)N1CCCNCCCNCCCCNCCCNCCCN1C(=O)c2cccc3cccc(c23)C1=O`
output: 7.56

---

Experiment: Inhibition of Trypanosoma brucei MetRS
resultType: Ki (nM)
Give bare numbers, in nM.

input: Give its Ki value. Item: `Fc1ccc2[nH]c(NCCCN[C@@H]3CCNc4c(Cl)cc(Cl)cc43)nc2n1`
output: 2

---

Tested on: Trypanosoma brucei rhodesiense
Test: Antiprotozoal activity against Trypanosoma brucei rhodesiense STIB900 strain assessed as trypanocidal activity
Assay type: functional, organism-based
resultType: IC50 (µM)
Answers are plain numbers, in µM.

input: Would you mind telling me what IC50 value was observed for `CN(C)CCCNc1cc(Cl)ccc1Sc1ccc(C(F)(F)F)cc1` ?
output: 1.2

---

Test system: Trypanosoma brucei
Assay: Trypanocidal activity against Trypanosoma brucei Lab 110 strain
Format: functional, organism-based
resultType: log10 of IC50 (log10 of the value in nM)
Scale: decimal log of IC50, IC50 in nM.

Some entries whose results are on file:
INSERT INTO results (chemicalstring, resulttype, numericreadout) VALUES
  ('NCCCN(CCCCN(CCCN)CCCc1ccccc1)CCCc1ccccc1', 'log10 of IC50', 2.70),
  ('c1ccc(CCCNCCCN(CCCCN(CCCNCCCc2ccccc2)CCCc2ccccc2)CCCc2ccccc2)cc1', 'log10 of IC50', 2.00),
  ('c1ccc(CCCN(CCCCN(CCCc2ccccc2)CCCN(CCCc2ccccc2)CCCc2ccccc2)CCCN(CCCc2ccccc2)CCCc2ccccc2)cc1', 'log10 of IC50', 4.30),
  ('c1ccc(CCCNCCCNCCCCNCCCNCCCc2ccccc2)cc1', 'log10 of IC50', 3.00);

Note: attention shifts to another entry.
input: Item `c1ccc(CNCCCNCCCCCCCNCCCNCc2ccccc2)cc1` has what recorded log10 of IC50?
output: 4.00

---

Test system: Leishmania infantum
Test: Antiprotozoal activity against Leishmania infantum promastigotes
Type: functional, organism-based
resultType: IC50 (µM)
Answers are plain numbers, in µM.

input: Looking for the measured IC50 of `CNCCNC(=O)CN1C(=O)Cc2c([nH]c3ccc(C(F)(F)F)cc23)-c2ccccc21` , can you help?
output: 112

---

Assay: Half life in BALB/c mouse plasma infected with Trypanosoma brucei 427 strain at 25 mg/kg/day, sc measured after 3 days
Type: ADME, organism-based
Details: time 3 day
resultType: half-life (h)
Give bare numbers, in h.

input: Entry under review: `Oc1cc(NCCCNCc2cc(Cl)cc(Cl)c2)nc2ccccc12` . Reported half-life?
output: 1
